Some binders, each annotated with its measured binding signal (plate reader).
Biological target: T1, oligopeptide GIFATYPSGHLDM (SEQ ID NO: 107)
T1 construct: Synthetic peptide, part of Loop C of AQP3
T1 peptide: GIFATYPSGHLDM
Test: ELISA on coated peptide

Examples with their reported binding signal (plate reader) follow.
1. Antibody C (antibody, mouse IgG2a, kappa, V domains shown, also called anti AQP3 antibody C) VH: QVQLKQSGAELARPGASVKLSCKASGYNFKSYGISWVKQRTGQGLEWIGEIYPGSGNTYYNEKLKGKATLTADKSSSTAYMELRSLTSEDSAVYFCARTYGYDSFPWFAYWGQGTLVTVSS VL: DIVMTQAAPSVPVTPGESVSISCRSSKSLLHSNGNTYLYWFLQRPGQSPQLLIYRVSNLASGVPDRFSGSGSGTAFTLRISRVEAEDEGVYYCMQHLEYPFTFGAGTKLEIKR    2.92
2. Antibody J (antibody, mouse IgG2a, kappa, V domains shown, also called anti AQP3 antibody J) VH: QVHLQQSGTELVKPGASVKLSCEASGYTFTSYWMHWVKQRPGQGLEWIGNINPSNGGTNYNEKFKSKATLTVDKSSSTAYMQLSSLTSEDSAVYYCARGGIYYGNYDYYAMDYWGQGTSVTVSS VL: DIVMTQAAPSVPVTPGESVSISCRSSKSLLHSNGNTYLYWFLQRPGQSPQLLIYRVSNLASGVPDRFSGSGSGTAFTLRISRVEAEDVGVYYCMQHLEYPFTFGGGTKLEIKR    0.523

Next item in the queue.
q: binding signal (plate reader) lookup needed for SC-B6 (IgG) (antibody, V domains shown, also called anti AQP3 antibody SC-B6) VH: QSVKESGGRLVTPGAPLTLTCTVSGFSLNNYAMTWVRQAPGKGLEWIGIINNDGISSTWYASWVKGRFIISKTSTTVDLKMTSLTTEDTATYFCARGGTSGYDIWGPGTLVTVSL VL: AQGPTQTPSPVSAAVGGTVTINCQSSPSVYKNYLSWYQQKPGQPPKLLIYGASTLASGVPSRFKGSRSGTQFTLTISDVQCDDAATYYCAGGYIGSRDIFSFGGGTEVVVK , thanks.
a: 3.79

Hey, just so you know, these numbers are from patent US20220298237A1.
